B1: GALNT9 (parent)
chain: FTQSGPIVSRATGRCLEVEMSKDA

- Variants of: B1
- test_name: protein stability index of a GFP-peptide fusion (GPS, HEK-293T) (PSI 1-6); higher = more stable;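 note: lentivirally expressed fusions sorted by FACS into six bins by GFP to DsRed ratio, PSI derived from sequencing read proportions per bin multiplied by bin number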
- experimental_conditions: c terminus: a fixed tail appended
Threshold rule: protein stability index greater than or equal to 2 is rule met; below that, rule not met.

| macromolecule_sequence | class_assignment |
| --- | --- |
| FTQSGPIVSRATGFCLEVEMSKDA | rule not met |
| FTQSGPIVSRATGRCLEVEMGKDA | rule not met |
| FTQSGPIVSRAEGRCLEVEMSKDA | rule met |
| FTQSGPIDSRATGRCLEVEMSKDA | rule met |
| FTQSGPIVSRATGRCLEVEFSKDA | rule not met |
| FTQSGPIVSRAAGRCLEVEMSKDA | rule met |
| FTQSIPIVSRATGRCLEVEMSKDA | rule not met |
| FTQSGPRVSRATGRCLEVEMSKDA | rule met |
